# tested target: BCRP (ABCG2) (Homo sapiens)
# Sequence (Q9UNQ0 whole entry): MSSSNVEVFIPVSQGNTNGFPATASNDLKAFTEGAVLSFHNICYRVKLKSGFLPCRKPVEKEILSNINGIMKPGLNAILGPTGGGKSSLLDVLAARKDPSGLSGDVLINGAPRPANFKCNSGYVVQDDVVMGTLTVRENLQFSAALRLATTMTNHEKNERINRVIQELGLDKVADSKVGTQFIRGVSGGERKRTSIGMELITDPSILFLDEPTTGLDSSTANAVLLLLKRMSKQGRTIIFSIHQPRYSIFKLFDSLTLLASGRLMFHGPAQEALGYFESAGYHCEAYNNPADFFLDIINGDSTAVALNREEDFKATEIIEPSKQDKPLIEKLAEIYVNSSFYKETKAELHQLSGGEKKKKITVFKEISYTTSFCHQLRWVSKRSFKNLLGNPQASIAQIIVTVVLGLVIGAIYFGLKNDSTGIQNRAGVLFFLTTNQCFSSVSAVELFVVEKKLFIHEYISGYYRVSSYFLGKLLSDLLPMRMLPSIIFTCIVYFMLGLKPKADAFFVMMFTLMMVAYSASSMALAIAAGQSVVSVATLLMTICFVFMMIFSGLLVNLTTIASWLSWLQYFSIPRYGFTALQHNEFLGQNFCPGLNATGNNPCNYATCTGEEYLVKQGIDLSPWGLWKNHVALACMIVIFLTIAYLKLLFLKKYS
# experiment: Inhibition of BCRP expressed in human HEK293 cells assessed as maximal mitoxantrone accumulation at 20 uM relative control
# Format: cell-based
# study conditions: HEK293 cells that express BCRP, probe mitoxantrone, read-out: Activity
quantity name: Emax at 20 µM (%)
The reply should be a number in %, with the unit left off.

Below, each entry is followed by its recorded Emax at 20 µM result.
1) Cc1c(O)cc2oc3oc4cc(O)ccc4c3c(=O)c2c1O [BOERAVINONE J]; 15
2) COc1c(C)c(O)c2c(=O)c3c(oc2c1O)C(O)Oc1ccccc1-3 (stereo not drawn) [BOERAVINONE I]; 12

Provide Emax at 20 µM value for the following molecule: COc1cc2oc3c(c(=O)c2c(O)c1C)-c1cccc(O)c1OC3O (stereo not drawn) [9-O-METHYL-4-HYDROXYBOERAVINONE B] 15

---

# tested target: UniProt:Q9UNQ0
# experiment: Inhibition of BCRP expressed in human HEK293 cells assessed as maximal mitoxantrone accumulation
quantity name: IC50 (nM)
The reply should be a number in nM, with the unit left off.

1. COc1cc(O)c2c(=O)c3c(oc2c1)C(OC)Oc1c(O)cccc1-3 (configuration not stated); 700

Switching to the query record.
Provide IC50 value for the following molecule: COc1cc2oc3c(c(=O)c2c(O)c1C)-c1cccc(O)c1OC3OC (configuration not stated) 2500

The measured values listed here are drawn from ChEMBL document CHEMBL1142979.
